Target under test: CDK2/E (Homo sapiens (Human))
Method summary: ADP-Glo Kinase Assay, CDK2/E
Assay type: biochemical
Experimental parameters: 1 μM compound
Classify: TRUE when CDK2/E % INH (1 μM) is strictly less than 30%; FALSE when CDK2/E % INH (1 μM) is not.

Past entries and their recorded results:
# Molecule, Assigned label
rows = [
    ("CCn1c(NCCN)nc2c([N+](=O)[O-])c(Br)c(Br)cc21", "TRUE"),
    ("Cl.N[C@H]1CCN(c2nc3c([N+](=O)[O-])c(Br)c(Br)cc3n2CC2CC2)C1", "TRUE"),
    ("CC(C)n1c(NC2CCC(N)CC2)nc2c([N+](=O)[O-])c(Br)c(Br)cc21 (centres unmarked) [Example 1CQ]", "FALSE"),
    ("N[C@@H]1CCN(c2nc3c([N+](=O)[O-])c(Br)c(Br)cc3n2CC2CC2)C1", "TRUE"),
    ("COCCn1c(N2CCNCC2)nc2c([N+](=O)[O-])c(Br)c(Br)cc21", "TRUE"),
]

*Q* Hello, I'm reviewing records and need to know if CDK2/E % INH (1 μM) of "CC(C)n1c(N[C@H]2CNC[C@@H]2O)nc2c([N+](=O)[O-])c(Br)c(Br)cc21.Cl" is below 30%. Could you check?
*A* TRUE
